ASSAYED TARGET: D(2) dopamine receptor (Homo sapiens)
ASSAY DETAILS: Antagonist activity against human dopamine D2L receptor expressed in HEK293 cells assessed as inhibition of […]-induced cAMP levels at 1 uM
Type: functional, cell-based
METRIC NAME: inhibition (%)
Numbers only, in %.

Record excerpt, results attached:
Cc1cccc(N2CCN(CCCCn3c(C)cn4c5c(=O)n(C)c(=O)n(C)c5nc34)CC2)c1C | 73.8
Cn1c(=O)c2c(nc3n(CCCCCN4CCN(c5ccccc5O)CC4)c(-c4ccccc4)cn23)n(C)c1=O | 71.2
Cn1c(=O)c2c(nc3n(CCCCCN4CCN(c5ccc(Cl)cc5)CC4)c(-c4ccccc4)cn23)n(C)c1=O | 75.6
Cn1c(=O)c2c(nc3n(CCCCN4CCN(c5ccccc5O)CC4)c(-c4ccccc4)cn23)n(C)c1=O | 77.8

Now let's try a different one.
Item: Cc1cn2c3c(=O)n(C)c(=O)n(C)c3nc2n1CCCCCN1CCN(c2ccc(Cl)c(Cl)c2)CC1 Test system: D(2) dopamine receptor (Homo sapiens) Read-out: inhibition Value: ?
55.9

---

ASSAYED TARGET: D(2) dopamine receptor (Homo sapiens, UniProt P14416)
Sequence (P14416 whole entry): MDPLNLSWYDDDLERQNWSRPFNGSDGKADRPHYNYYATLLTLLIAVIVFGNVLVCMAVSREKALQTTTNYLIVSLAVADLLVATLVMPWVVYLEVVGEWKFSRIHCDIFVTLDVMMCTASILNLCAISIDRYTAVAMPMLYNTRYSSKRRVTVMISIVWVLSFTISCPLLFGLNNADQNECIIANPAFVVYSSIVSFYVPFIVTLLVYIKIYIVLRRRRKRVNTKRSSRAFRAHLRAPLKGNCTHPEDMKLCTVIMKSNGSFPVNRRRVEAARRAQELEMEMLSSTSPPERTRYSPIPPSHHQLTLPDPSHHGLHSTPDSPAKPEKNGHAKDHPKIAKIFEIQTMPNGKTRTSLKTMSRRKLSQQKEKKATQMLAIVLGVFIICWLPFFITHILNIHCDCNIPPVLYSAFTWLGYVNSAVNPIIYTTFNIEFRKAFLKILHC
ASSAY DETAILS: Antagonist activity against human dopamine D2L receptor expressed in HEK293 cells assessed as inhibition of […]-induced cAMP levels at 0.1 uM
Type: functional, cell-based
1 means recorded inhibition is 20% or above; -1 means it is below 20%.

Cc1cn2c3c(=O)n(C)c(=O)n(C)c3nc2n1CCCCCN1CCN(c2ccc(Cl)c(Cl)c2)CC1 | 1
Cn1c(=O)c2c(nc3n(CCCCN4CCN(c5ccccc5O)CC4)c(-c4ccccc4)cn23)n(C)c1=O | 1
Cn1c(=O)c2c(nc3n(CCCCCN4CCN(c5ccccc5O)CC4)c(-c4ccccc4)cn23)n(C)c1=O | -1
Cc1cccc(N2CCN(CCCCn3c(C)cn4c5c(=O)n(C)c(=O)n(C)c5nc34)CC2)c1C | 1

Does inhibition meet or surpass 20% for Cn1c(=O)c2c(nc3n(CCCCCN4CCN(c5ccc(Cl)cc5)CC4)c(-c4ccccc4)cn23)n(C)c1=O ?
-1

---

Consider the following molecules; for each one, report its Activity.
ASSAYED TARGET: 5-hydroxytryptamine receptor 1A (Rattus norvegicus) (UniProt P19327)
Sequence (P19327 whole entry): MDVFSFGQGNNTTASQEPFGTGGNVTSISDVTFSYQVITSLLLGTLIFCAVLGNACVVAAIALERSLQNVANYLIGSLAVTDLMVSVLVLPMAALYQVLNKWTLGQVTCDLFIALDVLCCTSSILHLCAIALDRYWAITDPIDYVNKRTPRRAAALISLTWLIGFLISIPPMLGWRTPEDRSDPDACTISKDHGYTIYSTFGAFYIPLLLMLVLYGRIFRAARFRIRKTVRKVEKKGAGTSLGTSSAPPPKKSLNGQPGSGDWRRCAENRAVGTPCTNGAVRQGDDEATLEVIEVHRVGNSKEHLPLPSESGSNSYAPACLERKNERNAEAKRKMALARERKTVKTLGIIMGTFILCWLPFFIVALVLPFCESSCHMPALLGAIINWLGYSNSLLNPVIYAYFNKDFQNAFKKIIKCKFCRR
ASSAY DETAILS: Displacement of [3H]8-OH-DPAT from rat hippocampus 5-HT1A receptor assessed as total radioligand binding at 1.66 x 10^-7 M incubated for 20 mins by microbeta plate reader based method
Answers are plain numbers, in %.

Record excerpt, results attached:
Cc1cn2c3c(=O)n(C)c(=O)n(C)c3nc2n1CCCCCN1CCN(c2ccccc2O)CC1 | 52
Cn1c(=O)c2c(nc3n(CCCCN4CCN(c5ccccc5O)CC4)c(=O)ccn23)n(C)c1=O | 97
Cc1cccc(N2CCN(CCCCCn3c(=O)ccn4c5c(=O)n(C)c(=O)n(C)c5nc34)CC2)c1C | 88
Cn1c(=O)c2c(nc3n(CCCCCN4CCN(c5ccc(Cl)c(Cl)c5)CC4)c(=O)ccn23)n(C)c1=O | 86
Cc1cccc(N2CCN(CCCCn3c(=O)ccn4c5c(=O)n(C)c(=O)n(C)c5nc34)CC2)c1C | 85
Cn1c(=O)c2c(nc3n(CCCCCN4CCN(c5ccccc5O)CC4)ccn23)n(C)c1=O | 57
Cc1cccc(N2CCN(CCCCn3ccn4c5c(=O)n(C)c(=O)n(C)c5nc34)CC2)c1C | 48

Recorded Activity of Cn1c(=O)c2c(nc3n(CCCCCN4CCN(c5ccccc5O)CC4)c(-c4ccccc4)cn23)n(C)c1=O , please.
47

---

ASSAYED TARGET: D(3) dopamine receptor (Homo sapiens) (UniProt P35462)
Sequence (P35462 whole entry): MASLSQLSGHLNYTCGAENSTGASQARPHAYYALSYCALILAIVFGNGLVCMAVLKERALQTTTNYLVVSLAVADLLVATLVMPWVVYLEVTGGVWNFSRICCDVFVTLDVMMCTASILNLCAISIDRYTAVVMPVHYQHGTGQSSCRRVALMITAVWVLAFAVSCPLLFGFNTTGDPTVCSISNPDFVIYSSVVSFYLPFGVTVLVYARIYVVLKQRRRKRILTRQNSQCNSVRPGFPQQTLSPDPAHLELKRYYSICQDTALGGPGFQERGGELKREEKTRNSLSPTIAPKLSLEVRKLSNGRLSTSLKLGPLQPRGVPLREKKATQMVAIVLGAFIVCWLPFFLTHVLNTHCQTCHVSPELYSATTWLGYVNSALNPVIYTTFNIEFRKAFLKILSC
ASSAY DETAILS: Displacement of [3H]N-methylspiperone from dopamine D3 receptor (unknown origin) assessed as total radioligand binding at 1 uM incubated for 60 mins by microbeta plate reader based method
METRIC NAME: Activity (%)
One number for each entry, in %.

Cc1cn2c3c(=O)n(C)c(=O)n(C)c3nc2n1CCCCCN1CCN(c2ccccc2O)CC1 | 71
Cc1cc2c(s1)Nc1ccccc1N=C2N1CCN(C)CC1 | 10
Cn1c(=O)c2c(nc3n(CCCCCN4CCN(c5ccccc5O)CC4)c(=O)ccn23)n(C)c1=O | 46
Cc1cn2c3c(=O)n(C)c(=O)n(C)c3nc2n1CCCCN1CCN(c2ccccc2O)CC1 | 67
Cn1c(=O)c2c(nc3n(CCCCCN4CCN(c5ccc(Cl)c(Cl)c5)CC4)c(=O)ccn23)n(C)c1=O | 61

// input: 5 compounds below; output: Activity for each
1. Cn1c(=O)c2c(nc3n(CCCCCN4CCN(c5ccccc5O)CC4)c(-c4ccccc4)cn23)n(C)c1=O
2. Cn1c(=O)c2c(nc3n(CCCCN4CCN(c5ccc(Cl)c(Cl)c5)CC4)ccn23)n(C)c1=O
3. Cc1cccc(N2CCN(CCCCn3c(C)cn4c5c(=O)n(C)c(=O)n(C)c5nc34)CC2)c1C
4. Cn1c(=O)c2c(nc3n(CCCCCN4CCN(c5ccc(Cl)c(Cl)c5)CC4)ccn23)n(C)c1=O
5. Cn1c(=O)c2c(nc3n(CCCCN4CCN(c5ccccc5O)CC4)c(=O)ccn23)n(C)c1=O

1. 39
2. 0
3. 34
4. 16
5. 26

// input: 6 compounds below; output: Activity for each
1. Cc1cccc(N2CCN(CCCCCn3c(=O)ccn4c5c(=O)n(C)c(=O)n(C)c5nc34)CC2)c1C
2. Cn1c(=O)c2c(nc3n(CCCCCN4CCN(c5ccc(Cl)cc5)CC4)c(=O)ccn23)n(C)c1=O
3. Cn1c(=O)c2c(nc3n(CCCCN4CCN(c5ccccc5O)CC4)c(-c4ccccc4)cn23)n(C)c1=O
4. Cn1c(=O)c2c(nc3n(CCCCN4CCN(c5ccc(Cl)c(Cl)c5)CC4)c(=O)ccn23)n(C)c1=O
5. Cc1cccc(N2CCN(CCCCn3ccn4c5c(=O)n(C)c(=O)n(C)c5nc34)CC2)c1C
6. Cn1c(=O)c2c(nc3n(CCCCCN4CCN(c5ccccc5O)CC4)ccn23)n(C)c1=O

[67, 92, 39, 98, 13, 3]

// input: 3 compounds below; output: Activity for each
1. Cc1cn2c3c(=O)n(C)c(=O)n(C)c3nc2n1CCCCN1CCN(c2ccc(Cl)c(Cl)c2)CC1
2. Cn1c(=O)c2c(nc3n(CCCCN4CCN(c5ccccc5O)CC4)ccn23)n(C)c1=O
3. Cn1c(=O)c2c(nc3n(CCCCN4CCN(c5ccc(Cl)cc5)CC4)c(=O)ccn23)n(C)c1=O

64
69
52

Recorded Activity of Cc1cccc(N2CCN(CCCCn3c(=O)ccn4c5c(=O)n(C)c(=O)n(C)c5nc34)CC2)c1C , please.
73

---

ASSAYED TARGET: 5-hydroxytryptamine receptor 7 (Homo sapiens)
Sequence (P34969 whole entry): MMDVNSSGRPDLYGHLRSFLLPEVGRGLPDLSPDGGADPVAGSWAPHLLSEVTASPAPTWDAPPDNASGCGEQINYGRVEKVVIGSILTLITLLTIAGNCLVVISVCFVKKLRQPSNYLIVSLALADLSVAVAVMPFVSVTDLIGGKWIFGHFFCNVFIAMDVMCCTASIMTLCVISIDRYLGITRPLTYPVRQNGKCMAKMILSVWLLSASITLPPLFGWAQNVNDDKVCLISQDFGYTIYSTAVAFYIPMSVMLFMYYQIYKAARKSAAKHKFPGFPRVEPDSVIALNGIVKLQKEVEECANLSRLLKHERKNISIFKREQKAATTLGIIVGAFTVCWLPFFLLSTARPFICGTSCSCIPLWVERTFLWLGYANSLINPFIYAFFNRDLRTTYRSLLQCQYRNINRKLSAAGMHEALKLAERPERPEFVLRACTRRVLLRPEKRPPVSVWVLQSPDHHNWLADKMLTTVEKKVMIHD
ASSAY DETAILS: Displacement of [3H]LSD from human recombinant 5-HT7 receptor expressed in CHOK1 cells incubated for 60 mins by microbeta plate reader based method
METRIC NAME: Ki (nM)
Give bare numbers, in nM.

Cc1cn2c3c(=O)n(C)c(=O)n(C)c3nc2n1CCCCCN1CCN(c2ccc(Cl)cc2)CC1 | 691
Cn1c(=O)c2c(nc3n(CCCCCN4CCN(c5ccccc5O)CC4)c(=O)ccn23)n(C)c1=O | 473
Cc1cn2c3c(=O)n(C)c(=O)n(C)c3nc2n1CCCCCN1CCN(c2ccc(Cl)c(Cl)c2)CC1 | 111
Cn1c(=O)c2c(nc3n(CCCCCN4CCN(c5ccccc5O)CC4)c(-c4ccccc4)cn23)n(C)c1=O | 43
Cn1c(=O)c2c(nc3n(CCCCN4CCN(c5ccc(Cl)cc5)CC4)c(-c4ccccc4)cn23)n(C)c1=O | 37

// input: 3 compounds below; output: Ki for each
1. Cc1cn2c3c(=O)n(C)c(=O)n(C)c3nc2n1CCCCCN1CCN(c2ccccc2O)CC1
2. Cn1c(=O)c2c(nc3n(CCCCCN4CCN(c5ccccc5O)CC4)ccn23)n(C)c1=O
3. Cc1cn2c3c(=O)n(C)c(=O)n(C)c3nc2n1CCCCN1CCN(c2ccc(Cl)cc2)CC1

1. 124
2. 230
3. 361

// input: 3 compounds below; output: Ki for each
1. Cn1c(=O)c2c(nc3n(CCCCN4CCN(c5ccc(Cl)cc5)CC4)c(=O)ccn23)n(C)c1=O
2. Cc1cn2c3c(=O)n(C)c(=O)n(C)c3nc2n1CCCCN1CCN(c2ccccc2O)CC1
3. Cn1c(=O)c2c(nc3n(CCCCCN4CCN(c5ccc(Cl)cc5)CC4)ccn23)n(C)c1=O

[61, 510, 3640]

---

ASSAYED TARGET: 5-hydroxytryptamine receptor 6 (Homo sapiens)
Sequence (P50406 whole entry): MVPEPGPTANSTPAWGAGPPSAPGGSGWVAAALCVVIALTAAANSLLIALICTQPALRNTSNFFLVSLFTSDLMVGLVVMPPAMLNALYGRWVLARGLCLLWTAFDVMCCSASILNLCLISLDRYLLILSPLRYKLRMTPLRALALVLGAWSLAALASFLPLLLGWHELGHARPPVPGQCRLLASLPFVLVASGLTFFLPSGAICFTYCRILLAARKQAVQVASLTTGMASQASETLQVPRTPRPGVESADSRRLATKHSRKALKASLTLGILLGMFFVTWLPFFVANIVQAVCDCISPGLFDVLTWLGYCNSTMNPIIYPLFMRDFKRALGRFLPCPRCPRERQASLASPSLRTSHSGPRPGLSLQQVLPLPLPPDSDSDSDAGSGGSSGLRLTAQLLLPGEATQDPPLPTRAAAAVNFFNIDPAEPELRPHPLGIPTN
ASSAY DETAILS: Displacement of [3H]LSD from human recombinant 5-HT6 receptor expressed in HEK293 cells assessed as total radioligand binding at 1.66 x 10^-7 M incubated for 60 mins by microbeta plate reader based method
Type: cell-based
Binarize Activity at 90%; below is true, at or above is false.

The examples below pair each entry with its known result.
Cn1c(=O)c2c(nc3n(CCCCCN4CCN(c5ccccc5O)CC4)ccn23)n(C)c1=O | true
Cc1cccc(N2CCN(CCCCn3c(C)cn4c5c(=O)n(C)c(=O)n(C)c5nc34)CC2)c1C | true
Cc1cn2c3c(=O)n(C)c(=O)n(C)c3nc2n1CCCCCN1CCN(c2ccccc2O)CC1 | true
Cn1c(=O)c2c(nc3n(CCCCCN4CCN(c5ccc(Cl)c(Cl)c5)CC4)c(=O)ccn23)n(C)c1=O | false
Cn1c(=O)c2c(nc3n(CCCCN4CCN(c5ccccc5O)CC4)c(-c4ccccc4)cn23)n(C)c1=O | true
Cn1c(=O)c2c(nc3n(CCCCN4CCN(c5ccc(Cl)c(Cl)c5)CC4)c(=O)ccn23)n(C)c1=O | false

Consider the molecule Cn1c(=O)c2c(nc3n(CCCCN4CCN(c5ccccc5O)CC4)ccn23)n(C)c1=O . Is its Activity strictly less than 90%?
false

Consider the molecule Cc1cccc(N2CCN(CCCCCn3c(=O)ccn4c5c(=O)n(C)c(=O)n(C)c5nc34)CC2)c1C . Is its Activity strictly less than 90%?
true

Consider the molecule Cn1c(=O)c2c(nc3n(CCCCCN4CCN(c5ccccc5O)CC4)c(-c4ccccc4)cn23)n(C)c1=O . Is its Activity strictly less than 90%?
true

Consider the molecule Cc1cccc(N2CCN(CCCCn3c(=O)ccn4c5c(=O)n(C)c(=O)n(C)c5nc34)CC2)c1C . Is its Activity strictly less than 90%?
false
